Each item that follows carries a reported GI50.
- Tested on: UACC-62
- test.summary: NCI tumour cell line growth inhibition, 48 h
The source made the active and inactive calls. Cut-off read from the data, not from the text of the source: active = GI50 up to about 1.1 µM and inactive = higher. Square brackets hold non-standard residues; d marks the D form. Peptide text beside a SMILES is read from it. * marks the point of attachment. ξ: configuration not given here. NMeY = CN[C@@H](Cc1ccc(O)cc1)C(=O)O; Cbz = O=C(OCc1ccccc1)*; ξA = CC(N)C(=O)O

O=C1Sc2sc(=S)sc2SC1c1ccccc1 (stereo not drawn)
26.8 µM (inactive)
COc1ccc(N2C(=O)C3c4[nH]c5ccc(Br)cc5c4C4CCC(C(C)(C)C)CC4C3C2=O)cc1 (stereo not drawn)
> 100 µM (inactive)
COc1ccc(C[C@@H](C(=O)N[C@@H](C)C(N)=O)N(C)C(=O)[C@@H]2CCCN2C(=O)[C@H](CC(C)C)NC(=O)C(C)NC(=O)OCc2ccccc2)cc1 (stereo partly drawn) (Cbz-[ξA]LP[NMeY](Me)A-NH2)
73.1 µM (inactive)
C=CCOC(=O)C[C@H](NC(=O)[C@H](Cc1ccc(O)cc1)NCC(F)(F)F)C(=O)OCC=C
40.7 µM (inactive)
N=C(N)SCc1ccc(Cl)c2ccccc12.O=[N+]([O-])c1c(O)c(Cl)cc(Cl)c1Cl
13.5 µM (inactive)

Lookup: Would you kindly share the measured GI50 for NS(=O)(=O)c1ccc(Nc2c3ccccc3nc3c(C(=O)NCCCN(CCO)CCO)cccc23)cc1 ?
Found: 17.9 µM (inactive)

Lookup: Queued: CCOC(=O)N1CCc2cc(OC)c(OC)cc2/C1=C/c1ccc(OC)c(OC)c1
Found: 55.8 µM (inactive)

Lookup: Could you do the same for OC[C@H]1O[C@@H](n2cnc3cncnc32)[C@H](O)[C@@H]1O [NEBULARINE] , please?
Found: 1.16 µM (inactive)

###

Entries annotated with measured GI50
- System: RXF 631
- test.summary: NCI tumour cell line growth inhibition, 48 h
Activity calls are given as the source filed them. Rule as the data show it: active = GI50 up to about 1.1 µM and inactive = higher.

Example cases with answers are listed next.
Nc1nc(N)c(-c2ccc(Cl)cc2)c(CCC(=O)Nc2cccc(C(F)(F)F)c2)n1
> 100 µM (inactive)
Cc1ccc(NC(=O)COC(=O)c2cccc3c(=O)c4ccccc4[nH]c23)cc1
24.4 µM (inactive)
CN1C(OCc2ccccc2)c2c(ccc3c2OCO3)C2C=Cc3cc4c(cc3C21)OCO4 (stereo not drawn)
0.841 µM (active)
Clc1ccc(OCc2nnc3n2N=C(c2ccc(Br)cc2)CS3)cc1
> 10 µM (inactive)
NS(=O)(=O)c1ccc(NC(=O)c2cccc3c(Nc4ccc(S(N)(=O)=O)cc4)c4ccccc4nc23)cc1
3.48 µM (inactive)

Lookup: Form field: GI50 recorded for COc1c(CC(C)=O)ccc2c1C(=O)c1ccc(C=O)c(OC(C)=O)c1C2=O with RXF 631 (enter value)
Found: 20.6 µM (inactive)

Lookup: Could you do the same for CCOc1ccc(/C(C=O)=C(\Cl)c2ccc(OC)c(OC)c2)cc1 , please?
Found: > 100 µM (inactive)

Lookup: // next record NC(=O)/C(=N\NC(=O)c1cc2ccccc2cc1O)C1C(=O)N(c2ccccc2)N=C1N (stereo not drawn)
Found: 37.3 µM (inactive)

###

- Tested on: BT-549
- test.summary: NCI tumour cell line growth inhibition, 48 h
Active and inactive are the calls of the source. No stated cut-off is given here; in the data, active = GI50 up to about 1.1 µM and inactive = higher.
GI50 values for the compounds below.

COC(=O)c1c(C)cccc1/C=C1/Cc2c(C)cccc2C1=O
28.2 µM (inactive)
Cc1ccc(-n2cc(-c3ccc(Cl)cc3)c3c2N=CN2N=C(c4ccco4)NC32)cc1 (centres undefined)
26.2 µM (inactive)
CCN(CC)/N=N/c1c(C(N)=O)n[nH]c1C
11.1 µM (inactive)

# ---- query compound ----
Lookup: For the record Nc1nc(O)c(Br)c(-c2cccc([N+](=O)[O-])c2)n1 , what value of GI50 is listed for BT-549?
Found: 38.6 µM (inactive)

###

Collected GI50 values appear next to each entry.
- Tested on: SF-268
- test.summary: NCI tumour cell line growth inhibition, 48 h
Active and inactive are the calls of the source. Rule as the data show it: active = GI50 up to about 1.1 µM and inactive = higher.

Solved entries (count: 4):
CCOC(=O)NC(=O)c1cn(CCOCCOC(=O)NCCCCCCNC(=O)OCCOCCn2cc(C(=O)NC(=O)OCC)c(=O)[nH]c2=O)c(=O)[nH]c1=O
> 100 µM (inactive)
CC(=O)C(=[N+]=[N-])C(=O)NCC#N
> 10 µM (inactive)
O=C(Cl)c1cc([N+](=O)[O-])cc([N+](=O)[O-])c1
> 100 µM (inactive)
O=C1NC(=S)S/C1=C/c1ccco1
> 100 µM (inactive)

Here is another compound to look at.
Lookup: Which GI50 reading was recorded for the compound O=C(CC(=O)N1N=C(N(c2ccccc2)c2ccccc2)CC1c1ccccc1)Nc1cccc(Cl)c1 (stereo not given) ?
Found: > 100 µM (inactive)

###

Overview of recorded GI50 for various compounds
- System: SK-MEL-5
- test.summary: NCI tumour cell line growth inhibition, 48 h
Calls of active or inactive are those of the source. No stated cut-off is given here; in the data, active = GI50 up to about 1.1 µM and inactive = higher. Square brackets hold non-standard residues; d marks the D form. Peptide text beside a SMILES is read from it. * marks the point of attachment. ξ: configuration not given here. NMeY = CN[C@@H](Cc1ccc(O)cc1)C(=O)O; Cbz = O=C(OCc1ccccc1)*; ξA = CC(N)C(=O)O

Record excerpt, results attached:
O=C1CCCCC/C1=C\c1ccc(Cl)cc1
13.9 µM (inactive)
COc1ccc(C[C@@H](C(=O)N[C@@H](C)C(N)=O)N(C)C(=O)[C@@H]2CCCN2C(=O)[C@H](CC(C)C)NC(=O)C(C)NC(=O)OCc2ccccc2)cc1 (stereo not given in full) (Cbz-[ξA]LP[NMeY](Me)A-NH2)
76.2 µM (inactive)
O=C(C/N=C(\CN(c1ccccc1)c1ccccc1)Oc1c(Cl)cc(Cl)cc1Cl)N1c2ccccc2Sc2ccccc21
21.4 µM (inactive)
C/C=C\C(CC(=O)O)CN1CCC2=C(C1)C(S(=O)(=O)C(F)(F)F)c1ccccc12 (stereo not given)
> 100 µM (inactive)
Cc1cccc(NC(=S)Nc2ccccc2Cl)n1
27.9 µM (inactive)
CNC(=O)N1CN(c2ccccc2)C2(CCN(Cc3ccccc3)CC2)C1=O
56.1 µM (inactive)
O=C1CCCC2=C1CC1=C(CCCC1=O)N2c1ccccc1
> 100 µM (inactive)
COC1OC(COS(=O)(=O)c2ccc(C)cc2)C(O)C(OS(=O)(=O)c2ccc(C)cc2)C1OS(=O)(=O)c1ccc(C)cc1 (stereo not given)
> 100 µM (inactive)
Clc1ccc(OCc2nnc3n2N=C(c2ccc(Br)cc2)CS3)cc1
> 10 µM (inactive)

Lookup: Fill in the blank: the reported GI50 of O=c1[nH]c(-c2ccc(Cl)cc2)cc2ccsc12 is ____.
Found: 4.41 µM (inactive)

###

- Test system: RPMI-8226
- test.summary: NCI tumour cell line growth inhibition, 48 h
Calls of active or inactive are those of the source. Rule as the data show it: active = GI50 up to about 1.1 µM and inactive = higher.
The reply should name one outcome from Y for active, N for inactive

# count of solved cases: 6
O=C1C(=O)C(Br)(Br)C(Br)=C1Br
N
COc1ccc(NS(=O)(=O)c2ccc3ncn(NS(=O)(=O)c4ccc(I)cc4)c(=O)c3c2)cc1
N
CCCCCC(C[N+]1(C)CCOCC1)C(=O)/C=C/c1ccccc1 (stereo unspecified)
N
CCOC(CCCN1CCC2(CC1)C(=O)N(C)CN2c1ccccc1)(OCC)c1ccc(F)cc1
N
CC1OC2OC3C(OCC(O)C3O)OC(=O)[C@]34CCC(C)(C)CC3C3=CCC5[C@@]6(C)C[C@H](O)[C@H](OC7OC(CO)C(O)C(O)C7OC7OC(COC(=O)CC(C)(O)CC(=O)OC1C(O)C2O)C(O)C(O)C7O)[C@@](C)(CO)C6CC[C@@]5(C)[C@]3(C)CC4 (stereo partly specified)
N
O=C1c2c(c(-c3ccccc3)c(-c3ccccc3)c(-c3ccccc3)c2-c2ccccc2)C(=O)N1c1cccc(Br)c1
N

Lookup: Please let me know the test result on file for Cc1ccc(S(=O)(=O)OCOS(=O)(=O)c2ccc(C)cc2)cc1 .
Found: N

Lookup: How about this compound: Cc1cc(C)nc(NC(=O)COc2ccc(Cl)cc2)c1
Found: N

Lookup: What do we get for O=C1C=CC(=C(c2ccc(O)cc2)c2ccc(O)cc2)C=C1 [AURIN] ?
Found: N

Lookup: Request: NCC1OC(n2cnc3c(=O)[nH]c(N)nc32)C(O)C1O (stereo unspecified)
Found: N

Lookup: Same for Clc1ccc(OCc2nnc3n2N=C(c2ccc(Br)cc2)CS3)cc1
Found: N

Lookup: Nc1nc(N)c2nc(CNc3ccc(C(=O)NC(CCNC(=O)c4ccccc4C(=O)O)C(=O)O)cc3)cnc2n1 (stereo unspecified) ?
Found: Y

Lookup: Entry to check: Brc1ccc2c(c1)C1=C(CO2)Cc2ccccc2O1
Found: N

Lookup: Okay, and CCOC(=O)c1nc2ccccc2nc1NCc1cc(OC)c(OC)c(OC)c1 ?
Found: N

Lookup: And for C=C1C(=O)O[C@H]2C1C[C@@H](OC(C)=O)/C(C)=C/CC[C@@]1(C)O[C@H]21 (stereo partly specified) ?
Found: N

Lookup: Cc1nc2c(s/c(=N\N)n2-c2ccccc2)c(=O)n1C ?
Found: N

Lookup: Proceed to C=C(CO)[C@H]1Oc2ccc(C(C)=O)cc2[C@@H]1O
Found: N

Lookup: Could you do the same for C/C1=C\[C@H](C)C[C@H](C)OC(=O)[C@H](C)NC(=O)[C@@H](Cc2ccc(O)c(Br)c2)N(C)C(=O)[C@H](C)NC(=O)[C@@H](C)C1 , please?
Found: Y

Lookup: Please give the result for COc1ccc(NC=O)c(C(=O)CCNC(C)=O)c1 too.
Found: N

Lookup: Try this compound too: CC(=O)Oc1ccccc1-c1cc2ccccc2oc1=O
Found: N

Lookup: Now try Cc1ccc(/N=N/c2c(O)c(C(=O)O)cc3ccccc23)cc1C .
Found: N

Origin of measurements: ChEMBL document CHEMBL1201862
